Items are presented alongside their recorded TGI.
test system: CAKI-1 renal; test: NCI tumour cell line growth inhibition, 48 h

{"columns": ["compound", "TGI"],
 "data": [
  ["O=C1c2cc(CCl)sc2C(=O)c2ccsc21", "3.09 µM"],
  ["Cc1ccc(N2C(=O)/C(=C3\\Sc4c(nc(C)[nH]c4=O)N3c3ccccc3)SC2=S)cc1", "> 100 µM"],
  ["C[C@@H]1CCC2[C@@H](C)C(=O)O[C@@H]3C4C[C@@H]1[C@@]23OO[C@@]4(C)O (stereo partly drawn)", "> 100 µM"],
  ["CCS/C(Nc1ccccc1)=C(\\C#N)C(=O)Nc1ccc(OC)cc1", "> 100 µM"],
  ["CC1(C)CC(=O)c2c(nc3ccc4ccccc4c3c2-c2ccc(NC(=O)CCCCC(=O)Nc3ccc(-c4c5c(nc6ccc7ccccc7c46)CC(C)(C)CC5=O)cc3)cc2)C1", "> 100 µM"],
  ["C=C(C)C1/C=C(/C(C)C)CC[C@]2(C)O[C@@H]2CC[C@H](C)CC1=O (stereo partly drawn)", "> 100 µM"],
  ["O=C(NCc1ccccc1)c1cnc(Cl)cn1", "33 µM"],
  ["Nc1cccc(OCc2nc(N)nc(N)c2-c2ccc(Cl)cc2)c1", "> 100 µM"],
  ["CC[C@H](C)[C@H](NC(=O)C12C3C4C1C1C2C3C41NC(C)=O)C(=O)N(C)[C@H](C[C@@H](OC(C)=O)c1nc(C(=O)N[C@@H](Cc2ccccc2)C[C@H](C)C(=O)OC)cs1)C(C)C (stereo partly drawn)", "> 14.3 µM"],
  ["CC(=O)Oc1cccc2c1C(=O)c1c(OC(C)=O)cc(C)cc1C2=O", "> 100 µM"],
  ["CC/C=C\\CCC/C=C1/C(=O)C=C[C@@H]1C/C=C\\CCCC(=O)O", "11.9 µM"],
  ["Cc1cc(C)nc(NS(=O)(=O)c2ccc(NC(=O)c3cccc4cc5ccccc5nc34)cc2)n1", "> 100 µM"],
  ["CCCc1c2c3ccccc3nc-2nc2ccccn12", "> 100 µM"],
  ["Cc1nc(-c2nc([N+](=O)[O-])c([N+](=O)[O-])[nH]2)cs1", "> 100 µM"],
  ["COc1ccccc1-n1c(SCc2cc(OC)c(OC)c(OC)c2)nc2ccc(Cl)cc2c1=O", "> 100 µM"],
  ["COC(=O)CCCCC/C(=C\\C(=O)C(Cl)(Cl)Cl)OC", "> 100 µM"],
  ["CCN(CC)CCNc1ccc(C)c2sc3ccc(O)cc3c(=O)c12", "21.8 µM"],
  ["N#Cc1c(NC(=S)NCc2ccccc2)sc2c1CCN(N1CCc3c(sc(NC(=S)NCc4ccccc4)c3C#N)C1)C2", "> 100 µM"]
]}
